B1: PTPRD (parent)
chain: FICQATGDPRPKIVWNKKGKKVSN

variants of: B1; experiment: protein stability index of a GFP-peptide fusion (GPS, HEK-293T) (PSI 1-6); higher = more stable; conditions: c terminus: a fixed tail appended;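 also: lentivirally expressed fusions sorted by FACS into six bins by GFP to DsRed ratio, PSI derived from sequencing read proportions per bin multiplied by bin number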
protein stability index listing for selected variants.

variant-name | protein stability index
K20T | 1.69
C3H | 2.56
K12A | 1.87
Q4H | 2.33
I2F | 3.85
I13C | 1.99
G7F | 2.69
K12V | 1.61
K12N | 1.95
D8N | 2.16
A5G | 2.07
S23Y | 2
I13P | 1.75
Q4S | 1.58
S23R | 2.08
K21E | 2.25
T6R | 2
A5L | 2.01
D8Q | 1.77
K18I | 1.24
P9E | 1.99
K20A | 1.82
K20Y | 1.48
I2D | 4.73
G19V | 1.71
K18T | 1.51
F1W | 2.23
N16H | 1.74
C3M | 1.75
N16P | 1.75
C3I | 2.38
C3E | 3.04
T6Y | 2.24
P11R | 2.5
N16G | 1.05
V14E | 2.7
Q4F | 2.25
A5V | 2.26
T6V | 1.91
G7K | 2.39
K17Q | 1.84
T6K | 2.02
D8K | 2.5
V22E | 2.34
P11C | 1.32
P11N | 1.87
V22M | 2.35
W15V | 2.76
K18V | 1.45
Q4P | 2.14
V14D | 2.35
S23L | 2.14
N24T | 1.65
P9N | 2.31
K18R | 2.2
V22I | 2.17
K17P | 2.81
K18G | 2.04
N16L | 1.91
G19H | 1.9
I2C | 2.29
F1Q | 3.42
A5F | 2.19
I13E | 2.1
R10T | 2
Q4E | 2.18
N16C | 1.73
Q4W | 2.95
A5C | 2.12
D8R | 2.24
F1M | 2.92
G19W | 1.84
F1C | 3.2
K17L | 1.78
K21L | 2.9
K18C | 1.72
Q4L | 2.17
Q4D | 1.87
C3P | 3.54
K17R | 2.21
W15T | 2.85
I2H | 1.55
V14K | 2.4
R10I | 2.08
P11Y | 2.31
A5I | 1.77
K12E | 1.52
W15Y | 2.25
N24I | 2.73
V22G | 2.58
V22F | 2.4

Where these numbers come from: the supplement of paper PMC10567573
